# target-or-system: 3-oxoacyl-[acyl-carrier-protein] synthase 3 (Mycobacterium tuberculosis (strain ATCC 25618 / H37Rv))
# method-notes: Inhibitory activity against FabH from Mycobacterium tuberculosis H37Rv
Could you please report measured IC50 for the items listed next?

Exercise: Entry CCCCCCCCCCC1(C)SC(=O)C(C)C1=O (configuration not stated) : reported IC50 = ?
Key: > 100 µM

Exercise: Entry CC1C(=O)SC(C)(Cc2cccc(Cl)c2)C1=O (configuration not stated) : reported IC50 = ?
Key: > 1000 µM

Exercise: Entry CC1C(=O)SC(C)(C2CCCCC2)C1=O (configuration not stated) : reported IC50 = ?
Key: > 100 µM

Exercise: Entry Cc1ccccc1CC1(C)SC(=O)C(C)C1=O (configuration not stated) : reported IC50 = ?
Key: > 1000 µM

Exercise: Entry CC1C(=O)SC(C)(Cc2ccc3ccccc3c2)C1=O (configuration not stated) : reported IC50 = ?
Key: > 100 µM

Exercise: Entry CCCCCCCCCCCCCC1(C)SC(=O)C(C)C1=O (configuration not stated) : reported IC50 = ?
Key: 80 µM

Exercise: Entry CCC(C)C1(C)SC(=O)C(C)C1=O (configuration not stated) : reported IC50 = ?
Key: > 100 µM

====

Could you please report measured pIC50 for the items listed next?
# target-or-system: 3-oxoacyl-[acyl-carrier-protein] synthase 3 (Mycobacterium tuberculosis (strain ATCC 25618 / H37Rv), UniProt P9WNG3)
# Sequence (P9WNG3 whole entry): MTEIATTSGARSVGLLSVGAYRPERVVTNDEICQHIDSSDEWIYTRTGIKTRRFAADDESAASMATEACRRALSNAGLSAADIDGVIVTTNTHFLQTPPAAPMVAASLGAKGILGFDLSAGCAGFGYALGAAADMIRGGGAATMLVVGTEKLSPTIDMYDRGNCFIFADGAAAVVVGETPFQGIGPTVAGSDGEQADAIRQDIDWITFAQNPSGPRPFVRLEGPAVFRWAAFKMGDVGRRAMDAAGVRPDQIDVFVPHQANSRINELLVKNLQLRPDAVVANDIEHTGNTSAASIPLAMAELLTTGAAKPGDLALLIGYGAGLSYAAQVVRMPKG
# method-notes: Inhibitory activity against FabH from Mycobacterium tuberculosis H37Rv
pIC50: −log10 of the molar value.

Exercise: Entry CC1C(=O)SC(C)(CC2CCCCC2)C1=O (stereo not given) : reported pIC50 = ?
Key: < 3.00

Exercise: Entry CCCCCCCCC1(C)SC(=O)C(C)C1=O (stereo not given) : reported pIC50 = ?
Key: < 4.00

Exercise: Entry Cc1cc(C)c(CC2(C)SC(=O)C(C)C2=O)c(C)c1 (stereo not given) : reported pIC50 = ?
Key: < 3.00

Exercise: Entry CC1C(=O)SC(C)(Cc2ccc(Cl)cc2)C1=O (stereo not given) : reported pIC50 = ?
Key: < 4.00

Exercise: Entry Cc1cccc(CC2(C)SC(=O)C(C)C2=O)c1 (stereo not given) : reported pIC50 = ?
Key: < 3.00

Exercise: Entry CCCCC(CC)CC1(C)SC(=O)C(C)C1=O (stereo not given) : reported pIC50 = ?
Key: < 3.00

Exercise: Entry C=CCCC1(C)SC(=O)C(C)C1=O (stereo not given) : reported pIC50 = ?
Key: < 3.00

Exercise: Entry CC1C(=O)SC(C)(Cc2ccc(F)cc2)C1=O (stereo not given) : reported pIC50 = ?
Key: < 4.00

Exercise: Entry Cc1ccc(C)c(CC2(C)SC(=O)C(C)C2=O)c1 (stereo not given) : reported pIC50 = ?
Key: < 3.00

Exercise: Entry CC1C(=O)SC(C)(Cc2ccc(C(C)(C)C)cc2)C1=O (stereo not given) : reported pIC50 = ?
Key: < 4.00

====

Could you please report measured IC50 for the items listed next?

Exercise: // lookup IC50 | system=3-oxoacyl-[acyl-carrier-protein] synthase 3 (Escherichia coli, UniProt C3TDZ2) | key= CC1C(=O)SC(C)(CCc2ccccc2)C1=O (configuration not stated)
Key: > 1000 µM

Exercise: // lookup IC50 | system=3-oxoacyl-[acyl-carrier-protein] synthase 3 (Escherichia coli, UniProt C3TDZ2) | key= Cc1ccc(CC2(C)SC(=O)C(C)C2=O)cc1 (configuration not stated)
Key: > 1000 µM

Exercise: // lookup IC50 | system=3-oxoacyl-[acyl-carrier-protein] synthase 3 (Escherichia coli, UniProt C3TDZ2) | key= CC1C(=O)SC(C)(Cc2ccc(Cl)c(Cl)c2)C1=O (configuration not stated)
Key: > 100 µM

Exercise: // lookup IC50 | system=3-oxoacyl-[acyl-carrier-protein] synthase 3 (Escherichia coli, UniProt C3TDZ2) | key= CCCCCCCCCCC1(C)SC(=O)C(C)C1=O (configuration not stated)
Key: 100 µM

Exercise: // lookup IC50 | system=3-oxoacyl-[acyl-carrier-protein] synthase 3 (Escherichia coli, UniProt C3TDZ2) | key= CCCCCCCCCCCCCC1(C)SC(=O)C(C)C1=O (configuration not stated)
Key: 100 µM

Exercise: // lookup IC50 | system=3-oxoacyl-[acyl-carrier-protein] synthase 3 (Escherichia coli, UniProt C3TDZ2) | key= CC(C)CCC1(C)SC(=O)C(C)C1=O (configuration not stated)
Key: > 1000 µM

Exercise: // lookup IC50 | system=3-oxoacyl-[acyl-carrier-protein] synthase 3 (Escherichia coli, UniProt C3TDZ2) | key= CC1C(=O)SC(C)(Cc2c(Cl)cccc2Cl)C1=O (configuration not stated)
Key: > 1000 µM

Exercise: // lookup IC50 | system=3-oxoacyl-[acyl-carrier-protein] synthase 3 (Escherichia coli, UniProt C3TDZ2) | key= CC[C@H](C)CC1(C)SC(=O)C(C)C1=O (some centres not stated)
Key: > 100 µM

Exercise: // lookup IC50 | system=3-oxoacyl-[acyl-carrier-protein] synthase 3 (Escherichia coli, UniProt C3TDZ2) | key= CC1C(=O)SC(C)(Cc2ccc(Cl)cc2)C1=O (configuration not stated)
Key: > 1000 µM

Exercise: // lookup IC50 | system=3-oxoacyl-[acyl-carrier-protein] synthase 3 (Escherichia coli, UniProt C3TDZ2) | key= CC1C(=O)SC(C)(Cc2ccc([N+](=O)[O-])cc2)C1=O (configuration not stated)
Key: > 1000 µM

Exercise: // lookup IC50 | system=3-oxoacyl-[acyl-carrier-protein] synthase 3 (Escherichia coli, UniProt C3TDZ2) | key= CCCCCCCCCCCC1(C)SC(=O)C(C)C1=O (configuration not stated)
Key: > 100 µM

Exercise: // lookup IC50 | system=3-oxoacyl-[acyl-carrier-protein] synthase 3 (Escherichia coli, UniProt C3TDZ2) | key= CC1C(=O)SC(C)(Cc2ccc(F)cc2)C1=O (configuration not stated)
Key: > 1000 µM

Reference source: BindingDB's records for doi:10.1021/jm050825p
